Molecular target: AADC (Sus scrofa, UniProt P80041)
Sequence (P80041 whole entry): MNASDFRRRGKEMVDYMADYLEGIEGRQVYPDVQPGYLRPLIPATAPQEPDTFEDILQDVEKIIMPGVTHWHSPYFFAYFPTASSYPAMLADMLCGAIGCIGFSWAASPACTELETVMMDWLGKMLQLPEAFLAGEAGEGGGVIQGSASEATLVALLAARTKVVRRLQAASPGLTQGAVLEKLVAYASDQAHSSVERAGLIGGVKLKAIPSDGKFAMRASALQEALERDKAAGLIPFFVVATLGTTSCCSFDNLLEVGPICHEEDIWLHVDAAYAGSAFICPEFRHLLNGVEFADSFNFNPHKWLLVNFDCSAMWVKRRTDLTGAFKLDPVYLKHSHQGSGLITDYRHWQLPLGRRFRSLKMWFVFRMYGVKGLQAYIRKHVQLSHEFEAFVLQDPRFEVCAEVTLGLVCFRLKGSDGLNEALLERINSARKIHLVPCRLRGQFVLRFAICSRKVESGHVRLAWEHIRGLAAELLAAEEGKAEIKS
Assay: In vitro AADC inhibition: time of 90% inactivation (14CO2 trapping, DL-[1-14C]-dopa substrate)
Format: biochemical, hog
Design: key: ++++: The relative activities of the compounds are rated by the given number of "plus" signs; +++: The relative activities of the compounds are rated by the given number of "plus" signs; 0-+: The relative activities of the compounds are rated by the given number of "plus" signs
Conditions: CONC. 100 μM; relative activity
endpoint: RATING

- NC(CF)(Cc1ccc(O)cc1)C(=O)O (stereo not shown): 0-+
- NC(CF)(Cc1cccc(O)c1)C(=O)O (stereo not shown): +++
- Cc1cccc(CC(N)(CF)C(=O)O)c1O (stereo not shown): +++
- Cc1ccc(CC(N)(CF)C(=O)O)c(O)c1 (stereo not shown): +++

---

Tested on: AADC
Assay: Ex vivo AADC activity in organs of mice after repeated i.p. doses (Table II)
Parameters: species or system mice (Swiss Albino)
Settings: 10 mg/kg i.p. twice daily, three days; 12 h after 6th dose; vs control
Procedure: The test animals (e.g. mice or rats) are given the test compound in a suitable vehicle, either orally or by injection, each day over the period of time desired. The animals are kept on a constant time cycle, and body weights are measured daily. The animals are sacrificed by decapitation 12 to 24 hours after receiving the last dose of the test compound. Control animals receive the vehicle alone. […]
Please enter yes where % CHANGE AADC Kidney is greater than or equal to -90%, and no where it is lower.

Worked set:
* Cc1cccc(CC(N)(CF)C(=O)O)c1O (stereo not drawn) | yes
* NC(CF)(Cc1ccc(O)c(O)c1)C(=O)O (stereo not drawn) | no
* NC(CF)(Cc1cccc(O)c1)C(=O)O (stereo not drawn) | yes
* Cc1ccc(CC(N)(CF)C(=O)O)c(O)c1 (stereo not drawn) | yes

Next molecule, please.
Test whether the molecule NC(CF)(Cc1cc(O)ccc1O)C(=O)O (stereo not drawn) records % CHANGE AADC Kidney of -90% or higher. yes

---

System: AADC
Test: Ex vivo AADC activity in organs of mice after repeated i.p. doses (Table II)
Design: species or system mice (Swiss Albino)
Details: 100 mg/kg i.p. twice daily, three days; 12 h after 6th dose; vs control
endpoint: % CHANGE AADC Brain (%)
Report the figure in % without appending any unit label.

The cases that follow already have their % CHANGE AADC Brain on record.
• Cc1cccc(CC(N)(CF)C(=O)O)c1O (stereo not drawn) [2-OH3-methyl phenyl] = -94
• NC(CF)(Cc1cc(O)ccc1O)C(=O)O (stereo not drawn) [2,5-diOH-phenyl] = -99

Quick one: % CHANGE AADC Brain for NC(CF)(Cc1ccc(O)c(O)c1)C(=O)O (stereo not drawn) [3,4-diOH-phenyl] ? -99

Quick one: % CHANGE AADC Brain for Cc1ccc(CC(N)(CF)C(=O)O)c(O)c1 (stereo not drawn) [2-OH4-methyl phenyl] ? -99

Quick one: % CHANGE AADC Brain for NC(CF)(Cc1cccc(O)c1O)C(=O)O (stereo not drawn) [2,3-diOH-phenyl] ? -99

Quick one: % CHANGE AADC Brain for NC(CF)(Cc1cccc(O)c1)C(=O)O (stereo not drawn) [Example 3-OH-phenyl] ? -95

---

Entries and their measured TIME OF 90% INACTIVATION follow.
Biological target: UniProtKB P80041
Test: In vitro AADC inhibition: time of 90% inactivation (14CO2 trapping, DL-[1-14C]-dopa substrate)
Format: biochemical, hog
Details: CONC. 100 μM; pH 7.4, 37° C.

- Cc1cccc(CC(N)(CF)C(=O)O)c1O (stereo not shown): 1 min
- Cc1ccc(CC(N)(CF)C(=O)O)c(O)c1 (stereo not shown): 1 min
- NC(CF)(Cc1cccc(O)c1)C(=O)O (stereo not shown): 4 min

Could you now look at the following compound, please?
Quick one: TIME OF 90% INACTIVATION for NC(CF)(Cc1ccc(O)cc1)C(=O)O (stereo not shown) ? > 300 min

---

Tested on: catecholamine content (norepinephrine, dopamine)
Experiment: Catecholamine content in organs of mice after repeated i.p. doses (Table II)
Type: in vivo, mice (Swiss Albino)
Details: 10 mg/kg i.p. twice daily, three days; 12 h after 6th dose; vs control; * not significant
endpoint: % CHANGE NOREPINEPHRINE Brain (%)
Report the figure in % without appending any unit label.

The cases that follow already have their % CHANGE NOREPINEPHRINE Brain on record.
- NC(CF)(Cc1cc(O)ccc1O)C(=O)O (stereo not drawn) [2,5-diOH-phenyl]: 0
- NC(CF)(Cc1ccc(O)c(O)c1)C(=O)O (stereo not drawn) [3,4-diOH-phenyl]: -55
- NC(CF)(Cc1cccc(O)c1)C(=O)O (stereo not drawn) [Example 3-OH-phenyl]: -34
- NC(CF)(Cc1cccc(O)c1O)C(=O)O (stereo not drawn) [2,3-diOH-phenyl]: -33
- Cc1cccc(CC(N)(CF)C(=O)O)c1O (stereo not drawn) [2-OH3-methyl phenyl]: -27

Could you now look at the following compound, please?
Quick one: % CHANGE NOREPINEPHRINE Brain for Cc1ccc(CC(N)(CF)C(=O)O)c(O)c1 (stereo not drawn) [2-OH4-methyl phenyl] ? 0
